Experimental system: Luciferin 4-monooxygenase (Photinus pyralis, UniProt P08659)
Sequence (P08659 whole entry): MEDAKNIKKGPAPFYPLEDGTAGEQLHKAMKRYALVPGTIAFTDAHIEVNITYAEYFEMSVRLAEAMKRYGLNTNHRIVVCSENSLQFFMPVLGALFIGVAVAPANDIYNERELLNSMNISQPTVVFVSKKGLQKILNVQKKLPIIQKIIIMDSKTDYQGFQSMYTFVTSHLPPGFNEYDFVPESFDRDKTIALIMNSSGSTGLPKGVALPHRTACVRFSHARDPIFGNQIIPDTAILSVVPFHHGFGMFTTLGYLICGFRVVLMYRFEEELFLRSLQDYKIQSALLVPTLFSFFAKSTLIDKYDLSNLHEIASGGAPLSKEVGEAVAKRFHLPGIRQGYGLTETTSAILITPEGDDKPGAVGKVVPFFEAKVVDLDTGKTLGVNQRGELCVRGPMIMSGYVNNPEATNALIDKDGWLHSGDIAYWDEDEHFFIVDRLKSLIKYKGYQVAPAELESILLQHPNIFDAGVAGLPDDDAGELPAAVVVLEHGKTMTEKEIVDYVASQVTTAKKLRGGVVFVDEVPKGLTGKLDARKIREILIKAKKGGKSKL
Protocol description: Activation of firefly luciferase activity expressed in HEK293T cells after 6 hrs by luminescence assay
Value kind: EC50 (nM)
Numbers only, in nM.

Look up EC50 for this molecule: CCCCCCCCCCCCCC(=O)O[C@@H]1[C@@H](C)[C@@]2(O)[C@@H](C=C(CO)C[C@]3(O)C(=O)C(C)=C[C@@H]23)[C@@H]2C(C)(C)[C@]12OC(C)=O [phorbol 13-acetate 12-myristate]
10
